Target: T1, 4H967-bA
T1 chain: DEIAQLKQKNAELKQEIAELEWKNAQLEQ
Test: two-hybrid library CCNG1;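 also: natural log of median RNA to DNA barcode read ratio; higher means stronger binding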
# interaction score values compiled below
Keep the answer to the number alone.

The examples below pair each entry with its known result.
>  <binder>
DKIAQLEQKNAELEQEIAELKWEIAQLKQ [4H2442-bA]

>  <quantity>
interaction score

>  <data.value>
-1.64

$$$$
>  <binder>
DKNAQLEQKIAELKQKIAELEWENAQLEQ [4H3427-bA]

>  <quantity>
interaction score

>  <data.value>
-1.02

$$$$
>  <binder>
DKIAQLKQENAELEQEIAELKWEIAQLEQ [4H2697-bA]

>  <quantity>
interaction score

>  <data.value>
-0.359

$$$$
>  <binder>
DKNAQLKQKIAELEQEIAELKWKNAQLEQ [4H3855-bA]

>  <quantity>
interaction score

>  <data.value>
-0.636

$$$$
>  <binder>
DEIAQLKQENAELKQKNAELEWEIAQLKQ [4H754-bA]

>  <quantity>
interaction score

>  <data.value>
-0.575

$$$$
>  <binder>
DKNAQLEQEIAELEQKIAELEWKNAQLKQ [4H3112-bA]

>  <quantity>
interaction score

>  <data.value>
-0.715

$$$$
>  <binder>
DEIAQLKQKIAELEQENAELKWKIAQLEQ [4H797-bA]

>  <quantity>
interaction score

>  <data.value>
-0.372

$$$$
>  <binder>
DEIAQLEQKNAELKQEIAELKWKIAQLKQ [4H462-bA]

>  <quantity>
interaction score

>  <data.value>
-0.0789

$$$$

q: For the binder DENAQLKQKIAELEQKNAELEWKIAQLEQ [4H1845-bA] , what interaction score is on record?
a: -0.617

Recorded values, source paper PMC10397247.
